Tested on: Tov-21-G
Test: Primary qHTS to identify gynecologic anti-cancer compounds using libraries of approved drugs and bioactive compounds (AID 1345084); further: nearly all actives have a fitted effect of over 55% in size
Conditions: Gynecologic cancer cell panel viability, ATPlite luminescence, 48 h; series mostly up to 57.5 µM
Inconclusive results are not listed. Active and inactive are the calls of the source. The call rests on the fitted dose curve; in most records, active means well fitted cell-killing curve with a large enough effect; inconclusive means small, poorly fitted or top-dose-only effect, or effect the other way; inactive means flat fitted curve, though single readings scatter.
measurementName: activity change, negative = cytotoxicity

Answered cases to consult:
{"compound": "CNC(=O)Oc1ccc2c(c1)[C@]1(C)CCN(C)[C@@H]1N2C", "measuredResult": "inactive"}
{"compound": "CCOc1nc2cccc(C(=O)O)c2n1Cc1ccc(-c2ccccc2-c2nn[nH]n2)cc1", "measuredResult": "inactive"}
{"compound": "COc1ccc2c(c1)C(=O)N(CCc1ccc(S(=O)(=O)NC(=O)NC3CCCCC3)cc1)C(=O)C2(C)C", "measuredResult": "inactive"}
{"compound": "CSc1ccc2c(c1)C(N1CCN(C)CC1)Cc1ccccc1S2 (configuration not stated)", "measuredResult": "inactive"}

Hey, can you go through the list below and give me activity change, negative = cytotoxicity for every item?
1. CN(C)CCC=C1c2ccccc2CCc2ccccc21
2. CC(C(O)c1ccc(O)cc1)N1CCC(Cc2ccccc2)CC1 (configuration not stated)
3. Nc1cc(=O)[nH]c(N)n1
4. CCCCC/C(C=O)=C\c1ccccc1

inactive
inactive
inactive
inactive

Hey, can you go through the list below and give me activity change, negative = cytotoxicity for every item?
1. O=C1O[C@H]([C@@H](O)CO)C(O)=C1O
2. C[C@@H]1C[C@H]2[C@@H]3C[C@H](F)C4=CC(=O)C=C[C@]4(C)[C@@]3(F)[C@@H](O)C[C@]2(C)[C@@]1(O)C(=O)CO
3. Nc1ccc(S(=O)(=O)Nc2ccc(Cl)nn2)cc1
4. Cc1c(O)cccc1C(=O)N[C@@H](CSc1ccccc1)[C@H](O)CN1C[C@H]2CCCC[C@H]2C[C@H]1C(=O)NC(C)(C)C
5. CC(=O)Nc1ccc(/C=N/NC(N)=S)cc1
6. O=C(O)CC(O)C(=O)O (configuration not stated)
7. CCCCN(CCCC)CCCOC(=O)c1ccc(N)cc1
8. O=C1Nc2ccc(Cl)cc2[C@@](C#CC2CC2)(C(F)(F)F)O1

inactive
inactive
inactive
inactive
inactive
inactive
inactive
inactive

Data credit: PubChem BioAssay (NCATS)
